- experimental-target: Geranylgeranyl transferase type I (Homo sapiens, UniProt P49354+P53609)
- assay-name: Inhibition of human geranylgeranyltransferase-1 assessed as incorporation of [3H]GGPP into H-Ras-CVLL
measured-endpoint: pIC50
Keep in mind that pIC50 stands for -log10 of concentration in molar terms.

// below: answered compounds
>>> result("Cn1cnc(S(=O)(=O)N(CCN(Cc2cncn2C)c2ccc(C#N)cc2)CCn2cccc2)c1")
6.29
>>> result("Cn1cnc(S(=O)(=O)N(CCN(Cc2cncn2C)c2ccc(C#N)cc2)Cc2ccoc2)c1")
5.21
>>> result("Cn1cnc(S(=O)(=O)N(CCN(Cc2cncn2C)c2c(F)c(F)c(C#N)c(F)c2F)CC2CCN(c3ncccn3)CC2)c1")
5.06

Continue with the compound presented below.
**Q:** // output pIC50; input Cn1cnc(S(=O)(=O)N(CCN(Cc2cncn2C)c2ccc(C#N)cc2)Cc2ccc(-n3cccc3)cc2)c1 ; system Geranylgeranyl transferase type I (Homo sapiens, UniProt P49354+P53609)
**A:** 5.24

----------
- experimental-target: Protein farnesyltransferase (Mus musculus, UniProt Q61239+Q8K2I1)
- assay-name: Inhibition of H-Ras farnesylation expressed in mouse NIH3T3 cells
measured-endpoint: IC50 (nM)
A number alone suffices; assume nM.

// below: answered molecules
>>> result("C=C(Br)CN(CCN(Cc1cncn1C)c1ccc(C#N)cc1)S(=O)(=O)c1cn(C)cn1")
5700
>>> result("Cn1cncc1CN(CCN(Cc1ccccc1)S(=O)(=O)c1ccccn1)c1ccc(C#N)cc1")
90
>>> result("Cn1cnc(S(=O)(=O)N(CCN(Cc2cncn2C)c2ccc(C#N)cc2)Cc2ccoc2)c1")
650
>>> result("Cn1cncc1CN(CCN(Cc1ccccc1)S(=O)(=O)c1cccs1)c1ccc(C#N)cc1")
500
>>> result("Cn1cncc1CN(CCN(Cc1ccccc1)S(=O)(=O)c1cccc2cccnc12)c1ccc(C#N)cc1")
600
>>> result("Cn1cnc(S(=O)(=O)N(CCN(Cc2cncn2C)c2ccc(C#N)cc2)CC2CCCCC2)c1")
100
>>> result("Cn1cnc(S(=O)(=O)N(CCN(Cc2cncn2C)c2ccc(C#N)cc2)CCn2cccc2)c1")
4300
>>> result("Cn1cnc(S(=O)(=O)N(CCN(Cc2cncn2C)c2ccc(Br)cc2)Cc2ccccc2)c1")
1600

**Q:** Report measured IC50; entry is Cn1cnc(S(=O)(=O)N(CCN(Cc2cncn2C)c2ccc(C#N)cc2)Cc2cccc(-c3ccccc3)c2)c1
**A:** 3000

**Q:** Report measured IC50; entry is Cc1ccc(CN(CCN(Cc2cncn2C)c2ccc(C#N)cc2)S(=O)(=O)c2cn(C)cn2)cc1
**A:** 2000

**Q:** Report measured IC50; entry is Cc1ccccc1CN(CCN(Cc1cncn1C)c1ccc(C#N)cc1)S(=O)(=O)c1cn(C)cn1
**A:** 1000

----------
- experimental-target: Protein farnesyltransferase (Homo sapiens, UniProt P49354+P49356)
- assay-name: Inhibition of human farnesyltransferase assessed as incorporation of [3H]FPP into H-Ras-CVLS
pIC50: −log10 of the molar value.
Short version: pIC50 at least 7 is yes (1), less is no (0).

>>> label("Cn1cnc(S(=O)(=O)N(CCN(Cc2cncn2C)c2ccc(C#N)cc2)Cc2ccc(C#N)cc2)c1")
"no (0)"
>>> label("Cn1cncc1CN(CCN(Cc1ccccc1)S(=O)(=O)c1ccccc1)c1ccc(C#N)cc1")
"yes (1)"
>>> label("Cn1cnc(S(=O)(=O)N(CCN(Cc2cncn2C)c2ccc(C#N)cc2)CC2CCN(c3ncccn3)CC2)c1")
"no (0)"
>>> label("Cc1nc(C)c(CN(CCN(Cc2cncn2C)c2ccc(C#N)cc2)S(=O)(=O)c2cn(C)cn2)s1")
"no (0)"

**Q:** Dear colleague, could you confirm whether Cn1cnc(S(=O)(=O)N(CCN(Cc2cncn2C)c2ccc(C#N)cc2)Cc2cccs2)c1 has pIC50 at or above 7?
**A:** no (0)

**Q:** Dear colleague, could you confirm whether C=CCN(CCN(Cc1cncn1C)c1ccc(C#N)cc1)S(=O)(=O)c1cn(C)cn1 has pIC50 at or above 7?
**A:** yes (1)

**Q:** Dear colleague, could you confirm whether Cn1cnc(S(=O)(=O)N(CCN(Cc2cncn2C)c2ccc(C#N)cc2)Cc2ccoc2)c1 has pIC50 at or above 7?
**A:** no (0)
